measurement kind: melting point

Illustrative cases are given below, each with its answer.
>>> print(df.to_string())
                                 smiles_str  measurement_kind        reading
0  Cc1noc(C)c1-c1cc(Cc2n[nH]c(=O)c3ccccc23)cc(NS(=O)(=O)c2ccccc2C(F)(F)F)c1     melting point  197 to 198 °C
1  Cc1noc(C)c1-c1cc(Cc2n[nH]c(=O)c3ccccc23)cc(NCc2ccc(Cl)cc2)c1     melting point  200 to 201 °C

Prompt: Recall and state the measured melting point for `COCCS(=O)(=O)Nc1cc(Cc2n[nH]c(=O)c3ccccc23)cc(-c2c(C)noc2C)c1` .
Completion: 181 to 182 °C

Prompt: Recall and state the measured melting point for `Cc1noc(C)c1-c1cc(Cc2n[nH]c(=O)c3ccccc23)cc(NS(=O)(=O)c2ccc(C(F)(F)F)cc2)c1` .
Completion: 193 to 194 °C
